Data credit: the supplement of paper PMC9694430

# Tested on: LOC_OS05G30820-cb001;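 further: purified Escherichia coli-expressed rice kinase domain construct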
# PROTOCOL_NOTES: thermal shift delta Tm vs DMSO control; higher = stronger stabilization (binding)
# CONDITION_CONTEXT: 12.5 µM; protein concentration 2 µM
The threshold is inclusive: thermal shift delta Tm of exactly 0.5 °C counts as label 1; values below receive label 0.

> print(dat)
                                   compound    group
1  CCOc1cc2ncc(C#N)c(Nc3ccc(F)c(Cl)c3)c2cc1NC(=O)/C=C/CN(C)C [Pelitinib (EKB-569)]  label 1
2  Cc1ncc(CCCN(C)C)cc1Nc1ncc2c(n1)-c1ccc(C(F)(F)F)cc1NC(=S)C2  label 1
3  CN1CCN(S(=O)(=O)c2ccc(-c3cnc(N)c(C(=O)Nc4cccnc4)n3)cc2)CC1  label 0
4  COc1ccc(-c2cc3nccn3c(Nc3ncccc3C(N)=O)n2)cc1OC  label 1
5  Cc1ccc(NC(=O)c2ccc(CN3CCN(C)CC3)cc2)cc1Nc1nc(-c2cccnc2)cs1  label 0
6  COc1cc(OC)cc(N(CCNC(C)C)c2ccc3ncc(-c4cnn(C)c4)nc3c2)c1  label 0
7  C=CC(=O)Nc1cccc(Oc2nc(Nc3ccc(N4CCN(C)CC4)cc3OC)ncc2Cl)c1  label 0
8  O=C(Nc1c[nH]nc1-c1nc2ccc(CN3CCOCC3)cc2[nH]1)NC1CC1  label 1
